Assign Kd to each entry below.
Target: calmodulin (bovine, UniProt P62157 1-149)
Experiment: SPR
Give bare numbers, in µM.

Completed entries (count: 3):
>  <BINDER>
GST-RK fragment M1-L102 (domain or fragment) MDFGSLETVVANSAFIAARGSFDASSGPASRDRKYLARLKLPPLSKCEALRESLDLGFEGMCLEQPIGKRLFQQFLRTHEQHGPALQLWKDIEDYDTADDAL

>  <Kd [µM]>
54

$$$$
>  <BINDER>
GST fusion of the RK amino terminal region (N-RK: M1-G183) (domain or fragment) MDFGSLETVVANSAFIAARGSFDASSGPASRDRKYLARLKLPPLSKCEALRESLDLGFEGMCLEQPIGKRLFQQFLRTHEQHGPALQLWKDIEDYDTADDALRPQKAQALRAAYLEPQAQLFCSFLDAETVARARAGAGDGLFQPLLRAVLAHLGQAPFQEFLDSLYFLRFLQWKWLEAQPMG

>  <Kd [µM]>
63

$$$$
>  <BINDER>
GST-RK fragment L102-G183 (domain or fragment) LRPQKAQALRAAYLEPQAQLFCSFLDAETVARARAGAGDGLFQPLLRAVLAHLGQAPFQEFLDSLYFLRFLQWKWLEAQPMG

>  <Kd [µM]>
23

$$$$

Continue with the binder presented below.
Look up and state reported Kd for GST-RK fragment F125-K175 (domain or fragment) FLDAETVARARAGAGDGLFQPLLRAVLAHLGQAPFQEFLDSLYFLRFLQWK 17
